- testSystem: HLA-A*02 (human)
- experimentSummary: UV-exchange b2m ELISA
parameterMeasured: peptide exchange yield

Name the reported peptide exchange yield value associated with the binder "SLGKFTFDV"
> 75%

And what about the binder "FLGPRIIGL" ?
50 to 75%

And what about the binder "AIVKEIVNI" ?
20 to 49%

And what about the binder "LLLGDSALYL" ?
50 to 75%

And what about the binder "TIYKDFVYI" ?
20 to 49%

And what about the binder "YIKTELISV" ?
50 to 75%

And what about the binder "VTFKEYVTV" ?
20 to 49%

And what about the binder "FLLPTGAEA" ?
20 to 49%

And what about the binder "LLNPVVEFV" ?
50 to 75%

And what about the binder "FISERVEVV" ?
> 75%

And what about the binder "TMDSVLVTV" ?
50 to 75%

And what about the binder "ILDHEVPSL" ?
50 to 75%

And what about the binder "SLPNGKPVSV" ?
50 to 75%

And what about the binder "ALADFMLSL" ?
50 to 75%

And what about the binder "YLVSEIFKA" ?
50 to 75%

And what about the binder "KLLDPQEFTL" ?
50 to 75%
